- TESTED_TARGET: T1, murine CD22 protein (ACROBiosystems, SI2-M52Ha) (murine, UniProt P35329 22-708)
- T1 construct: extracellular domain; also called murine CD22-ECD; murine CD22-ECD-His
- T1 sequence (looked up): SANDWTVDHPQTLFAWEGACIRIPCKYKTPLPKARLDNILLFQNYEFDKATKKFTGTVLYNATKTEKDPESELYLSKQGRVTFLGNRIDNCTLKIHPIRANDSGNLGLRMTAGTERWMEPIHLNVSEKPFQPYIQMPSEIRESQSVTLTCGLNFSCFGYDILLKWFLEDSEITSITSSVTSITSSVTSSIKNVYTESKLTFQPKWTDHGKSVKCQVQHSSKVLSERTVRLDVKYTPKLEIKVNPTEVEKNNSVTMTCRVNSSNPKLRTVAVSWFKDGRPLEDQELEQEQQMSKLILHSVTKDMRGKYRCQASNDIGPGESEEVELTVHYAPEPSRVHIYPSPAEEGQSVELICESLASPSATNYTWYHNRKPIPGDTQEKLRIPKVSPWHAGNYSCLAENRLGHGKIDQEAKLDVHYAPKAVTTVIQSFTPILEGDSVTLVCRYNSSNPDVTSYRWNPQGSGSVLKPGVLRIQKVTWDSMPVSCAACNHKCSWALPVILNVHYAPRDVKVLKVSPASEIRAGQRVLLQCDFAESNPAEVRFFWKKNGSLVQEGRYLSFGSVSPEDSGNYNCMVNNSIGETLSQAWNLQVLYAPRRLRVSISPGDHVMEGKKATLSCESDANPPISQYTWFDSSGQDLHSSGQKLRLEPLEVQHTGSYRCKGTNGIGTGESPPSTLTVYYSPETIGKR
- RUN_DESCRIPTION: ELISA, coated murine CD22, 100 nM Ab
Give OD450 for every item shown.
Please reply with the bare figure in OD450 and do not write the unit itself.

Ask: I have this binder here, F1.172.13 human-murine chimeric antibody (antibody, human IgG1, kappa, V domains shown, Chimeric, human IgG1 / kappa) VH: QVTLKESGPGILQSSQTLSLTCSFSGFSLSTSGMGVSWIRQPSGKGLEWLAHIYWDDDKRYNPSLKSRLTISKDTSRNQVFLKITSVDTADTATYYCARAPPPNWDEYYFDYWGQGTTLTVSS VL: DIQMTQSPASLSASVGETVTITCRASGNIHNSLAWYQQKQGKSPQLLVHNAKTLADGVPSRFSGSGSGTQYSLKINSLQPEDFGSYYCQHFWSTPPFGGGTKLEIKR , and I need its recorded OD450.
Result: 0.08

Ask: And then F1.7.6 human-murine chimeric antibody (antibody, human IgG1, kappa, V domains shown, Chimeric, human IgG1 / kappa; VL tied by name) VH: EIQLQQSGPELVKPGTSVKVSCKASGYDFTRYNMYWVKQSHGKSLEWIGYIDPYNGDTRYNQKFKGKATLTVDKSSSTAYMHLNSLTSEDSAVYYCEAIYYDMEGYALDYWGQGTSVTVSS VL: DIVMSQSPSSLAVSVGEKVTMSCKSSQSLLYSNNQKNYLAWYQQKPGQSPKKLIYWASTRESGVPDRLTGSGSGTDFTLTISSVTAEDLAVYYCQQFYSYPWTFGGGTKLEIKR , what is it?
Result: 0.07

Ask: And then F1.267.9 human-murine chimeric antibody (antibody, human IgG1, kappa, V domains shown, Chimeric, human IgG1 / kappa; VL tied by name) VH: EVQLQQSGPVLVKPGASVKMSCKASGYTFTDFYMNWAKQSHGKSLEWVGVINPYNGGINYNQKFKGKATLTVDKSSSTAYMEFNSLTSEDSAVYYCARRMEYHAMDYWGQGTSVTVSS VL: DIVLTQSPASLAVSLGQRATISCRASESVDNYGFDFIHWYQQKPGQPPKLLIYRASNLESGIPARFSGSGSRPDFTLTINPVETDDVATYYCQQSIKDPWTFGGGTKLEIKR , what is it?
Result: 0.07

Ask: And then F1.105.11 human-murine chimeric antibody (antibody, human IgG1, kappa, V domains shown, Chimeric, human IgG1 / kappa; VL tied by name) VH: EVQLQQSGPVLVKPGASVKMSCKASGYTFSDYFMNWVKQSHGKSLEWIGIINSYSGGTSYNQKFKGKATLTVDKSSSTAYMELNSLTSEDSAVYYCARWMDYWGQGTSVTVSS VL: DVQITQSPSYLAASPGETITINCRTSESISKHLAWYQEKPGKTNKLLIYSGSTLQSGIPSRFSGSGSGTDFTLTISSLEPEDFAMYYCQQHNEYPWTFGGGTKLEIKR , what is it?
Result: 0.08
